system: Staphylococcus aureus MSSA (Newman); assay: broth microdilution MIC assay, Staphylococcus aureus MSSA (Newman); type: cell-based; conditions: Staphylococcus aureus, 24 h, read-out: Antibacterial activity Staphylococcus aureus (MSSA)
quantity kind: MIC

Examples with their reported MIC follow.
INSERT INTO assay_data (molecule, quantity_kind, result) VALUES
  ('CN(C)Cc1[nH]c(-c2ccc(-c3ccccc3C(F)(F)F)o2)nc1-c1ccccc1 [Compound 70]', 'MIC', '20 to 50 µg/mL'),
  ('Cc1[nH]c(-c2ccc(-c3cccc(F)c3)s2)nc1-c1ccccc1 [Compound 117]', 'MIC', '20 to 50 µg/mL'),
  ('Cc1[nH]c(-c2ccc(-c3ccccc3Cl)o2)nc1-c1ccccc1 [Compound 3]', 'MIC', '3 to 10 µg/mL'),
  ('Cc1nc(-c2ccc(-c3ccc(O)cc3)o2)[nH]c1-c1ccccc1 [Compound 150]', 'MIC', '11 to 201 µg/mL');

Next, consider the following molecule.
Qu. Tell me the measured MIC of Cc1[nH]c(-c2ccc(-c3ccccc3C(F)(F)F)o2)nc1-c1ccccc1 [Compound 17] , please.
Ans. 3 to 10 µg/mL
